Recorded values, source paper PMC6084004.

Task for the reader: assign each of the following molecules its reported melting point.

Recorded result, OC[C@H]1O[C@@H](n2c3ccc(Cl)cc3c3c(-c4ccccc4)ncnc32)[C@H](F)[C@@H]1O , melting point: 192 to 193 °C

Recorded result, OC[C@H]1O[C@@H](n2c3ccc(Cl)cc3c3c(-c4ccoc4)ncnc32)[C@@H](F)[C@@H]1O , melting point: 208 to 214 °C

Recorded result, OC[C@H]1O[C@@H](n2c3ccc(Cl)cc3c3c(-c4ccsc4)ncnc32)[C@@H](F)[C@@H]1O , melting point: 240 to 241 °C

Recorded result, OC[C@H]1O[C@@H](n2c3ccc(Cl)cc3c3c(-c4cccs4)ncnc32)[C@H](F)[C@@H]1O , melting point: 206 to 211 °C

Recorded result, Cc1ncnc2c1c1cc(Cl)ccc1n2[C@@H]1O[C@H](CO)[C@@H](O)[C@H]1F , melting point: 247 to 251 °C

Recorded result, Cc1ncnc2c1c1cc(Cl)ccc1n2[C@@H]1O[C@H](CO)[C@@H](O)[C@@H]1O , melting point: 233 to 235 °C

Recorded result, COc1ncnc2c1c1cc(Cl)ccc1n2[C@@H]1O[C@H](CO)[C@@H](O)[C@@H]1F , melting point: 248 to 250 °C

Recorded result, CSc1ncnc2c1c1cc(Cl)ccc1n2[C@@H]1O[C@H](CO)[C@@H](O)[C@H]1F , melting point: 205 to 209 °C

Recorded result, OC[C@H]1O[C@@H](n2c3ccc(Cl)cc3c3c(-c4ccco4)ncnc32)[C@@H](F)[C@@H]1O , melting point: 75 to 81 °C

Recorded result, CSc1ncnc2c1c1cc(Cl)ccc1n2[C@@H]1O[C@H](CO)[C@@H](O)[C@@H]1O , melting point: 181 to 183 °C

Recorded result, Nc1ncnc2c1c1cc(Cl)ccc1n2[C@@H]1O[C@H](CO)[C@@H](O)[C@@H]1F , melting point: 267 to 272 °C

Recorded result, Nc1ncnc2c1c1cc(Cl)ccc1n2[C@@H]1O[C@H](CO)[C@@H](O)[C@@H]1O , melting point: 298 to 301 °C

Recorded result, OC[C@H]1O[C@@H](n2c3ccc(Cl)cc3c3c(-c4ccccc4)ncnc32)[C@@H](O)[C@@H]1O , melting point: 183 to 185 °C

Recorded result, OC[C@H]1O[C@@H](n2c3ccc(Cl)cc3c3c(-c4ccco4)ncnc32)[C@@H](O)[C@@H]1O , melting point: 241 to 243 °C

Recorded result, OC[C@H]1O[C@@H](n2c3ccc(Cl)cc3c3c(-c4ccoc4)ncnc32)[C@H](F)[C@@H]1O , melting point: 184 to 186 °C

Recorded result, OC[C@H]1O[C@@H](n2c3ccc(Cl)cc3c3c(-c4ccccc4)ncnc32)[C@@H](F)[C@@H]1O , melting point: 214 to 216 °C

Recorded result, CSc1ncnc2c1c1cc(Cl)ccc1n2[C@@H]1O[C@H](CO)[C@@H](O)[C@@H]1F , melting point: 230 to 231 °C

Recorded result, Nc1ncnc2c1c1cc(Cl)ccc1n2[C@@H]1O[C@H](CO)[C@@H](O)[C@H]1F , melting point: 275 to 278 °C

Recorded result, OC[C@H]1O[C@@H](n2c3ccc(Cl)cc3c3c(-c4cccs4)ncnc32)[C@@H](O)[C@@H]1O , melting point: 192 to 194 °C

Recorded result, OC[C@H]1O[C@@H](n2c3ccc(Cl)cc3c3c(-c4ccoc4)ncnc32)[C@@H](O)[C@@H]1O , melting point: 186 to 188 °C

Recorded result, OC[C@H]1O[C@@H](n2c3ccc(Cl)cc3c3c(-c4ccsc4)ncnc32)[C@H](F)[C@@H]1O , melting point: 221 to 222 °C

Recorded result, OC[C@H]1O[C@@H](n2c3ccc(Cl)cc3c3c(-c4ccsc4)ncnc32)[C@@H](O)[C@@H]1O , melting point: 207 to 209 °C

Recorded result, OC[C@H]1O[C@@H](n2c3ccc(Cl)cc3c3c(-c4cccs4)ncnc32)[C@@H](F)[C@@H]1O , melting point: 225 to 227 °C

Recorded result, COc1ncnc2c1c1cc(Cl)ccc1n2[C@@H]1O[C@H](CO)[C@@H](O)[C@@H]1O , melting point: 238 to 241 °C

Recorded result, Cc1ncnc2c1c1cc(Cl)ccc1n2[C@@H]1O[C@H](CO)[C@@H](O)[C@@H]1F , melting point: 211 to 216 °C

Recorded result, OC[C@H]1O[C@@H](n2c3ccc(Cl)cc3c3c(-c4ccco4)ncnc32)[C@H](F)[C@@H]1O , melting point: 203 to 206 °C
